Test system: NCI-H322M lung
Experiment: NCI-60 one-dose screen, 48 h (100 = growth as untreated, 0 = no growth, -100 = all killed)
Conditions: 10 µM unless noted
Method: Growth inhibition of the NCI-H322M human Non-Small Cell Lung tumor cell line is measured as a screen for anti-cancer activity. Cells are grown in 96 well plates and exposed to the test compound for 48 hours. Compounds are tested at a single concentration, which is 10^-5 M for most compounds. The reported endpoint is percent growth (GI% or GIPRCNT), where numbers from 0 - 100% represent growth inhibition, and numbers from -100% - 0 represent cell death. […]
About 83,000 compounds went through this panel and 20% of them were active in at least one assay; those are over-represented in the sample as a whole.
Lab note - cut at 90% for growth: Y if strictly below, N if not.

Consider `O=C1Nc2ccccc2/C1=C\c1c(-c2ccc(F)cc2)nc2ccccn12` . Does its growth lie strictly below 90%?
Y

Consider `CCc1ccc(-c2cn3ccnc3c(-c3ccc4ncn(Cc5ccccc5)c4c3)n2)cc1` . Does its growth lie strictly below 90%?
N

Consider `COc1cc(C(=O)Nc2cc3c(cc2Oc2cc(C)cc(C)c2)C(=O)N(C)[C@@H](CC(=O)N(C)O)C(=O)N3)c(Br)c(OC)c1OC` . Does its growth lie strictly below 90%?
Y

###

system: SF-268 CNS; assay: NCI-60 one-dose screen, 48 h; conditions: 10 µM unless noted
Compounds without any hit were thinned out: in the full panel of roughly 83,000, 20% have a hit. Active and inactive are the calls of the source. Rule for the calls: active = growth percent below 10; inactive = the rest.
Your reply should match one of these outcome classes. active, inactive

// param item: `CCOC(=O)Oc1c(OC)cc(C(=O)c2ccc(OC)c(OC(=O)CCl)c2OC)cc1OC` ; yields the recorded call
inactive

// param item: `Fc1ccc2c(-c3cncn3CCc3ccccc3)c[nH]c2c1` ; yields the recorded call
inactive

// param item: `CCOC(=O)[C@@H](C)C[C@H](Cc1ccccc1)NC(=O)c1csc([C@@H](C[C@H](C(C)C)N(C)C(=O)[C@@H](NC(=O)[C@H]2C[C@H](O[Si](C)(C)C(C)(C)C)CCN2C)C(C)C)OC(C)=O)n1` ; yields the recorded call
active

// param item: `COc1ccc(C(=O)c2cc(OC)c(OC)c(OC)c2)cc1O` ; yields the recorded call
inactive

// param item: `N=C(N)c1ccc(OCCCCCCCCCCOc2ccc(C(=N)N)cc2)cc1` ; yields the recorded call
active

// param item: `Cc1nc(N)nc(N[C@@H](C)c2nc3cccc(NCc4ccc(C(=O)NO)cc4)c3c(=O)n2-c2ccccc2)n1` ; yields the recorded call
inactive

// param item: `CCOC(=O)c1cc(C(=O)c2cc(OC)cc(OC)c2)n2ccc3ccccc3c12` ; yields the recorded call
inactive

// param item: O=C(/C(=C\c1ccc([N+](=O)[O-])cc1)S(=O)Cc1ccc(Cl)cc1)c1ccc(Cl)cc1 (stereo not drawn) ; yields the recorded call
inactive

###

Please go through the items and note down their growth.
test system: A549/ATCC NSCLC; experiment: NCI-60 one-dose screen, 48 h (100 = growth as untreated, 0 = no growth, -100 = all killed); conditions: 10 µM unless noted
This is part of a sample that, as a whole, favours compounds with a hit. Of some 83,000 tested, about 20% had one in any assay.
Give the number; % is assumed, so skip it.

What the record says about COc1cc(C2=NN(C(C)=O)C(c3cc(OC)c(OC)c(OC)c3)C2)ccc1O (centres undefined) : growth is 21.7

What the record says about `CC(=O)Nc1ccc(-n2cnc3cc(-c4ccc(OCCN5CCCCC5)cc4)ccc32)cc1` : growth is -3.26

What the record says about `ClC1=C(Br)C(Br)(Br)C(=C(Br)Br)C1(Br)Br` : growth is 94.6

What the record says about `O=C(Nc1ncc(Cc2cc(Cl)ccc2Cl)s1)c1cccs1` : growth is 38.3

What the record says about `COc1ccc(-c2cnc3c(-c4cccc5cnccc45)cnn3c2)cc1` : growth is 39.8

What the record says about `O=C(CNCCN1CCOCC1)N1c2cccc3cccc(c23)N(C(=O)CNCCN2CCOCC2)C1c1cn(-c2ccccc2)nc1-c1cccc([N+](=O)[O-])c1` : growth is 82.3

What the record says about `CC(C)(C)c1ccc(NS(=O)(=O)c2ccc3nc(NC(=O)c4cnccn4)[nH]c3c2)cc1` : growth is 38.8

What the record says about `O=C1Nc2ccccc2/C1=C\c1c(-c2ccccc2)nc2ccccn12` : growth is 47.1

What the record says about `COc1ccc(C(=O)c2cc(C)c(OC)c(C)c2)c(OC)c1OC(=O)C(Cl)Cl` : growth is 11
